Source: PubChem BioAssay AID1963852

System: 282377-053-R-J1-PDC complex spheroid viability
Assay: Anticancer human tumor 282377-053-R-J1-PDC patient-derived colon adenocarcinoma cell line growth inhibition [POLQ]
Conditions: second compound 10 µM; first compound 0.0316 µM; stronger effect = lower value
Measured viability, T/C, listed per entry for reference.
Write the answer as a number in %, unit excluded.

Recorded viability, T/C, per entry:
compound	viability, T/C / %
C=CCn1c(=O)c2cnc(Nc3ccc(N4CCN(C)CC4)cc3)nc2n1-c1cccc(C(C)(C)O)n1 + Nc1ccc(C#CCN(C(=O)Cc2ncc(C(F)(F)F)cc2C(F)(F)F)c2ccc(F)cc2)nn1	96.7
CCCS(=O)(=O)Nc1ccc(F)c(C(=O)c2c[nH]c3ncc(-c4ccc(Cl)cc4)cc23)c1F + COC1C(OC(N)=O)C(O)C(Oc2ccc3c(O)c(NC(=O)c4ccc(O)c(CC=C(C)C)c4)c(=O)oc3c2C)OC1(C)C	89.1
CNCc1ccc(-c2[nH]c3cc(F)cc4c3c2CCNC4=O)cc1 + Cc1cccc(N(C)C(=O)C2C(O)CCN2c2nc(C)cc(C(F)(F)F)c2C#N)c1	104
CCc1c2c(nc3ccc(O)cc13)-c1cc3c(c(=O)n1C2)COC(=O)[C@]3(O)CC + Nc1ccc(C#CCN(C(=O)Cc2ncc(C(F)(F)F)cc2C(F)(F)F)c2ccc(F)cc2)nn1	97.1
COc1cccc2c1C(=O)c1c(O)c3c(c(O)c1C2=O)CC(O)(C(=O)CO)CC3OC1CC(N)C(O)C(C)O1 (stereo not given) + Nc1ccc(C#CCN(C(=O)Cc2ncc(C(F)(F)F)cc2C(F)(F)F)c2ccc(F)cc2)nn1	119
COc1cc2cc(C(=O)CCC(=O)O)sc2cc1OC + COC1C(OC(N)=O)C(O)C(Oc2ccc3c(O)c(NC(=O)c4ccc(O)c(CC=C(C)C)c4)c(=O)oc3c2C)OC1(C)C	99
CC(C)n1c(=O)n(C)c2cnc3cc(F)c(-c4ccc(OCCCN5CCCCC5)nc4)cc3c21 + Nc1ccc(C#CCN(C(=O)Cc2ncc(C(F)(F)F)cc2C(F)(F)F)c2ccc(F)cc2)nn1	121
C#Cc1c(F)ccc2cc(O)cc(-c3ncc4c(N5CC6CCC(C5)N6)nc(OCC56CCCN5CC(F)C6)nc4c3F)c12 (stereo not given) + COC1C(OC(N)=O)C(O)C(Oc2ccc3c(O)c(NC(=O)c4ccc(O)c(CC=C(C)C)c4)c(=O)oc3c2C)OC1(C)C	100
CC1COCCN1c1cc(C2(S(C)(=N)=O)CC2)nc(-c2ccnc3[nH]ccc23)n1 (stereo not given) + Cc1cccc(N(C)C(=O)C2C(O)CCN2c2nc(C)cc(C(F)(F)F)c2C#N)c1	90.6

Now for a further compound.
Query: Note viability, T/C for the compound shown: CC[C@@]1(O)C(=O)OCc2c1cc1n(c2=O)Cc2cc3c(CN(C)C)c(O)ccc3nc2-1 + Nc1ccc(C#CCN(C(=O)Cc2ncc(C(F)(F)F)cc2C(F)(F)F)c2ccc(F)cc2)nn1
Result: 112

---

Measured viability, T/C, listed per entry for reference.
System: 282377-053-R-J1-PDC complex spheroid viability
Experiment: Anticancer human tumor 282377-053-R-J1-PDC cell line growth inhibition [POLQ];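 further: spheroids exposed to compounds for seven days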;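 on viability, T/C: 100% = DMSO vehicle control viability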
Details: second compound 0.0316 µM; first compound 0.316 µM; stronger effect = lower value
Write the answer as a number in %, unit excluded.

compound	viability, T/C [%]
CNCc1ccc(-c2[nH]c3cc(F)cc4c3c2CCNC4=O)cc1 + Nc1ccc(C#CCN(C(=O)Cc2ncc(C(F)(F)F)cc2C(F)(F)F)c2ccc(F)cc2)nn1	90
C=CC(=O)N1CCN(c2nc(=O)n(-c3c(C)ccnc3C(C)C)c3nc(-c4c(O)cccc4F)c(F)cc23)C(C)C1 (stereo unspecified) + Nc1ccc(C#CCN(C(=O)Cc2ncc(C(F)(F)F)cc2C(F)(F)F)c2ccc(F)cc2)nn1	94
O=c1[nH]cc(F)c(=O)[nH]1 + COC1C(OC(N)=O)C(O)C(Oc2ccc3c(O)c(NC(=O)c4ccc(O)c(CC=C(C)C)c4)c(=O)oc3c2C)OC1(C)C	104
COc1cc(C2c3cc4c(cc3C(OC3OC5COC(C)OC5C(O)C3O)C3COC(=O)C23)OCO4)cc(OC)c1O (stereo unspecified) + Nc1ccc(C#CCN(C(=O)Cc2ncc(C(F)(F)F)cc2C(F)(F)F)c2ccc(F)cc2)nn1	116
CC1COCCN1c1cc(C2(O)CC3CCC(C2)O3)c2cnn(-c3ccn[nH]3)c2n1 (stereo unspecified) + Nc1ccc(C#CCN(C(=O)Cc2ncc(C(F)(F)F)cc2C(F)(F)F)c2ccc(F)cc2)nn1	67.5
O=C(Nc1ccc(O)c(NS(=O)(=O)c2ccc(F)cc2)c1)c1ccc(-c2ccccc2)cc1 + Cc1cccc(N(C)C(=O)C2C(O)CCN2c2nc(C)cc(C(F)(F)F)c2C#N)c1	98.4

Query: Note viability, T/C for the compound shown: CC(C)n1c(=O)n(C)c2cnc3cc(F)c(-c4ccc(OCCCN5CCCCC5)nc4)cc3c21 + Cc1cccc(N(C)C(=O)C2C(O)CCN2c2nc(C)cc(C(F)(F)F)c2C#N)c1
Result: 99

Query: Note viability, T/C for the compound shown: COc1cc2cc(C(=O)CCC(=O)O)sc2cc1OC + COC1C(OC(N)=O)C(O)C(Oc2ccc3c(O)c(NC(=O)c4ccc(O)c(CC=C(C)C)c4)c(=O)oc3c2C)OC1(C)C
Result: 128

Query: Note viability, T/C for the compound shown: COc1ccc([C@@H](O)c2cc(-c3ncnc4cc(N5CCOCC5)ccc34)c(F)cc2Cl)nn1 + Cc1cccc(N(C)C(=O)C2C(O)CCN2c2nc(C)cc(C(F)(F)F)c2C#N)c1
Result: 108

Query: Note viability, T/C for the compound shown: CC1COCCN1c1cc(-c2ccnn2C)c2ccnc(-c3ccn[nH]3)c2n1 (stereo unspecified) + COC1C(OC(N)=O)C(O)C(Oc2ccc3c(O)c(NC(=O)c4ccc(O)c(CC=C(C)C)c4)c(=O)oc3c2C)OC1(C)C
Result: 52.5

---

Measured viability, T/C, listed per entry for reference.
Test system: 282377-053-R-J1-PDC complex spheroid viability
Assay: Anticancer human tumor 282377-053-R-J1-PDC cell line growth inhibition [POLQ];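 further: spheroids exposed to compounds for seven days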;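 on viability, T/C: 100% = DMSO vehicle control viability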
Details: second compound 1 µM; first compound 3.16 µM; stronger effect = lower value
Write the answer as a number in %, unit excluded.

molecule	recorded result
C#Cc1c(F)ccc2cc(O)cc(-c3ncc4c(N5CC6CCC(C5)N6)nc(OCC56CCCN5CC(F)C6)nc4c3F)c12 (configuration not stated) + Cc1cccc(N(C)C(=O)C2C(O)CCN2c2nc(C)cc(C(F)(F)F)c2C#N)c1	86.9
O=C(Nc1ccc(O)c(NS(=O)(=O)c2ccc(F)cc2)c1)c1ccc(-c2ccccc2)cc1 + Nc1ccc(C#CCN(C(=O)Cc2ncc(C(F)(F)F)cc2C(F)(F)F)c2ccc(F)cc2)nn1	87.1
C#Cc1c(F)ccc2cc(O)cc(-c3ncc4c(N5CC6CCC(C5)N6)nc(OCC56CCCN5CC(F)C6)nc4c3F)c12 (configuration not stated) + COC1C(OC(N)=O)C(O)C(Oc2ccc3c(O)c(NC(=O)c4ccc(O)c(CC=C(C)C)c4)c(=O)oc3c2C)OC1(C)C	112
CCc1cc2c(N3CCc4c(cc(Cn5ccnc5)cc4-c4cn(C)nc4C(F)(F)F)C3=O)cc(C)nc2c(OC)n1 + Nc1ccc(C#CCN(C(=O)Cc2ncc(C(F)(F)F)cc2C(F)(F)F)c2ccc(F)cc2)nn1	96.7
CNCc1ccc(-c2[nH]c3cc(F)cc4c3c2CCNC4=O)cc1 + Cc1cccc(N(C)C(=O)C2C(O)CCN2c2nc(C)cc(C(F)(F)F)c2C#N)c1	138

Query: Note viability, T/C for the molecule shown: CC(C)n1c(=O)n(C)c2cnc3cc(F)c(-c4ccc(OCCCN5CCCCC5)nc4)cc3c21 + COC1C(OC(N)=O)C(O)C(Oc2ccc3c(O)c(NC(=O)c4ccc(O)c(CC=C(C)C)c4)c(=O)oc3c2C)OC1(C)C
Result: 119

Query: Note viability, T/C for the molecule shown: CCCS(=O)(=O)Nc1ccc(F)c(C(=O)c2c[nH]c3ncc(-c4ccc(Cl)cc4)cc23)c1F + Cc1cccc(N(C)C(=O)C2C(O)CCN2c2nc(C)cc(C(F)(F)F)c2C#N)c1
Result: 68

---

Measured pIC50, listed per entry for reference.
Tested on: 282377-053-R-J1-PDC complex spheroid viability
Test: Anticancer human tumor 282377-053-R-J1-PDC cell line growth inhibition [POLQ];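 further: spheroids exposed to compounds for seven days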
Conditions: curve of first compound; second compound 0.1 µM
pIC50: −log10 of the molar value.

Recorded pIC50, per entry:
compound	pIC50
O=C(Nc1ccc(O)c(NS(=O)(=O)c2ccc(F)cc2)c1)c1ccc(-c2ccccc2)cc1 + Nc1ccc(C#CCN(C(=O)Cc2ncc(C(F)(F)F)cc2C(F)(F)F)c2ccc(F)cc2)nn1	< 5.00
COc1cccc2c1C(=O)c1c(O)c3c(c(O)c1C2=O)CC(O)(C(=O)CO)CC3OC1CC(N)C(O)C(C)O1 (stereo not given) + Cc1cccc(N(C)C(=O)C2C(O)CCN2c2nc(C)cc(C(F)(F)F)c2C#N)c1	6.25
CC(C)n1c(=O)n(C)c2cnc3cc(F)c(-c4ccc(OCCCN5CCCCC5)nc4)cc3c21 + COC1C(OC(N)=O)C(O)C(Oc2ccc3c(O)c(NC(=O)c4ccc(O)c(CC=C(C)C)c4)c(=O)oc3c2C)OC1(C)C	< 5.00
CCc1cc2c(N3CCc4c(cc(Cn5ccnc5)cc4-c4cn(C)nc4C(F)(F)F)C3=O)ccnc2c(OC)n1 + Cc1cccc(N(C)C(=O)C2C(O)CCN2c2nc(C)cc(C(F)(F)F)c2C#N)c1	< 5.00

Now for a further compound.
Query: Note pIC50 for the compound shown: C#Cc1c(F)ccc2cc(O)cc(-c3ncc4c(N5CC6CCC(C5)N6)nc(OCC56CCCN5CC(F)C6)nc4c3F)c12 (stereo not given) + Cc1cccc(N(C)C(=O)C2C(O)CCN2c2nc(C)cc(C(F)(F)F)c2C#N)c1
Result: < 5.00
